tested on: Maillard reaction (Human Serum Albumin and Glucose); experiment: Measurement of the Maillard reaction inhibitory activity (fluorescent products of human serum albumin and glucose, 60° C., 40 hours); conditions: human, 40 h
VALUE KIND: IC50 (µg/mL)

# example entries with known answers
compound="O=C(OC1C(O)OC2COC(=O)c3cc(Oc4c(C(=O)OC5C(O)OC6COC(=O)c7cc(Oc8c(C(=O)OC9C(O)OC%10COC(=O)c%11cc(O)c(O)c(O)c%11-c%11c(cc(O)c(O)c%11O)C(=O)O[C@H]%10C9OC(=O)c9cc(O)c(O)c(O)c9)cc(O)c(O)c8O)c(O)c(O)c7-c7c(cc(O)c(O)c7O)C(=O)O[C@H]6C5OC(=O)c5cc(O)c(O)c(O)c5)cc(O)c(O)c4O)c(O)c(O)c3-c3c(cc(O)c(O)c3O)C(=O)O[C@H]2C1OC(=O)c1cc(O)c(O)c(O)c1)c1cc(O)c(O)c(O)c1 (some centres unmarked)" measured_value=0.13
compound="O=C(OC[C@H]1O[C@@H](OC(=O)c2cc(O)c(O)c(OC(=O)c3cc(O)c(O)c(O)c3)c2)[C@H](OC(=O)c2cc(O)c(O)c(OC(=O)c3cc(O)c(O)c(O)c3)c2)[C@@H](OC(=O)c2cc(O)c(O)c(OC(=O)c3cc(O)c(O)c(O)c3)c2)[C@@H]1OC(=O)c1cc(O)c(O)c(OC(=O)c2cc(O)c(O)c(O)c2)c1)c1cc(O)c(O)c(OC(=O)c2cc(O)c(O)c(O)c2)c1 [Tannic acid, reference compound]" measured_value=0.31
compound="O=C(OC1C(O)OC2COC(=O)c3cc(Oc4c(C(=O)OC5C(O)OC6COC(=O)c7cc(O)c(O)c(O)c7-c7c(cc(O)c(O)c7O)C(=O)O[C@H]6C5OC(=O)c5cc(O)c(O)c(O)c5)cc(O)c(O)c4O)c(O)c(O)c3-c3c(cc(O)c(O)c3O)C(=O)O[C@H]2C1OC(=O)c1cc(O)c(O)c(O)c1)c1cc(O)c(O)c(O)c1 (some centres unmarked)" measured_value=0.43

A. N=C(N)NN [Aminoguanidine, reference compound]
B. O=c1oc2c(O)c(O)cc3c(=O)oc4c(O)c(O)cc1c4c23 [Ellagic acid dihydrate, ellagic acid dihydrate, reference compound]
Please choose the item with the lower IC50 value from this pair: A and B Refer to your chosen item by its label in the answer.
B

Values from patent US20160058782A1
